Every entry's value here was drawn from ChEMBL document CHEMBL1125367.

I'd be grateful if you could share measured residual activity for these entries.
- subject.of.test: D(2) dopamine receptor (Rattus norvegicus) (UniProt P61169)
- Sequence (P61169 whole entry): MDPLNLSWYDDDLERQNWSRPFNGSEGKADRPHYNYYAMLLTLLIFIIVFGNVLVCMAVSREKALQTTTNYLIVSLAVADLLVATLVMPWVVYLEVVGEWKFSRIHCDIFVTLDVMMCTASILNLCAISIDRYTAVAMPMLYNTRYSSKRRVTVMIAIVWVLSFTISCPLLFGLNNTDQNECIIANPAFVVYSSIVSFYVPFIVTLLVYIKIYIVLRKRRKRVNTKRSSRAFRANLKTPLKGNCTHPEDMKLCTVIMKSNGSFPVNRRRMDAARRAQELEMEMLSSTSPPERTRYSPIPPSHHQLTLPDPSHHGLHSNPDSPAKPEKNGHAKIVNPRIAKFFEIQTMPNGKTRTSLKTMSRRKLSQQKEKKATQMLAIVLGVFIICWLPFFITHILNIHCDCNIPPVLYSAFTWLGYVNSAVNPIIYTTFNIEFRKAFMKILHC
- experiment.description: The percentage inhibition of adenylate cyclase activity of compound was measured on dopamine receptor D2 of Rat Striatum at 0.1 micro M
- condition.context: values are per cent of control
# include the unit after the value

Known results for compounds:
smiles_structure=Br.CCCN(CCCc1ccc(O)cc1)CCc1ccc(Cl)c(O)c1 metric="residual activity" recorded_result=86%
smiles_structure=CCCN(CCc1cccc(O)c1)CCc1ccc(Cl)c(O)c1 metric="residual activity" recorded_result=91%
smiles_structure=Br.NCCc1ccc(Cl)c(O)c1 metric="residual activity" recorded_result=90%
smiles_structure=CCCN(CCc1ccc(O)cc1)CCc1ccc(Cl)c(O)c1 metric="residual activity" recorded_result=81%

I would be grateful if you could provide residual activity for each of the following entries.
1. Br.CCCN(CCC)CCc1ccc(Cl)c(O)c1
2. CCCN(CCc1ccccc1)CCc1ccc(Cl)c(O)c1
3. CCCN(CCc1ccccc1)CCc1cccc(O)c1
4. NCCc1ccc(O)c(O)c1

1: 88%; 2: 86%; 3: 95%; 4: 92%

====

- subject.of.test: D(1A) dopamine receptor (Rattus norvegicus)
- experiment.description: Percent stimulation of adenylate cyclase activity at dopamine receptor D1 of Rat Striatum at 1 uM
- Type: functional
- condition.context: values are per cent of control
metric: residual activity (%)
Answers are plain numbers, in %.

smiles_structure=Br.NCCc1ccc(Cl)c(O)c1 metric="residual activity" recorded_result=95

I would be grateful if you could provide residual activity for each of the following entries.
1. Br.CCCN(CCCc1ccc(O)cc1)CCc1ccc(Cl)c(O)c1
2. Br.CCCN(CCC)CCc1ccc(Cl)c(O)c1
3. CCCN(CCc1ccccc1)CCc1ccc(Cl)c(O)c1

[100, 105, 118]

====

- subject.of.test: D(1A) dopamine receptor (Rattus norvegicus, UniProt P18901)
- Sequence (P18901 whole entry): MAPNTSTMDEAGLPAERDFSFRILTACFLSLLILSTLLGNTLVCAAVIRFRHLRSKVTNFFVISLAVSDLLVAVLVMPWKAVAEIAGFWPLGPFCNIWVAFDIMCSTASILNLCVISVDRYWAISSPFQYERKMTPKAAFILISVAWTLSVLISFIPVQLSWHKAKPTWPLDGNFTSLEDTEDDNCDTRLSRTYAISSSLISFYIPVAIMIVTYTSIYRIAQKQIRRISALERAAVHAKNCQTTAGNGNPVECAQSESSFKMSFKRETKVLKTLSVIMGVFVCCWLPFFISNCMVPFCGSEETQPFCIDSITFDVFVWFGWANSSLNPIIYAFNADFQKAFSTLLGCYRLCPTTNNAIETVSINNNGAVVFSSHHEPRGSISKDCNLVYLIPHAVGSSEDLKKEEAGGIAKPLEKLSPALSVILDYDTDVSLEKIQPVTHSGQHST
- experiment.description: Inhibitory activity against [3H]-SCH- 23390 in Rat Striatal membrane
- Type: cell membranes
metric: pIC50
Give bare numbers, as −log10 of the molar value.

Known results for molecules:
smiles_structure=CCCN(CCc1ccccc1)CCc1ccc(Cl)c(O)c1 recorded_result=4.61
smiles_structure=Br.NCCc1ccc(Cl)c(O)c1 recorded_result=4.60
smiles_structure=CCCN(CCc1ccccc1)CCc1cccc(O)c1 recorded_result=4.03
smiles_structure=Br.CCCN(CCC)CCc1ccc(Cl)c(O)c1 recorded_result=4.29
smiles_structure=Br.CCCN(CCCc1ccc(O)cc1)CCc1ccc(Cl)c(O)c1 recorded_result=4.77

Now examine the next entry.
# query: pIC50 of entry CCCN(CCc1cccc(O)c1)CCc1ccc(Cl)c(O)c1 4.95

====

- subject.of.test: D(1A) dopamine receptor (Rattus norvegicus, UniProt P18901)
- experiment.description: Inhibitory activity against [3H]-SCH- 23390 in Rat Striatal membrane
- Type: cell membranes
metric: IC50
# include the unit after the value

# query: IC50 of entry CCCN(CCc1ccc(O)cc1)CCc1ccc(Cl)c(O)c1 18.1 µM

====

- subject.of.test: D(2) dopamine receptor (Rattus norvegicus)
- experiment.description: The percentage inhibition of adenylate cyclase activity of compound was measured on dopamine receptor D2 of Rat Striatum at 10 micro M
- condition.context: values are per cent of control
Cut-off 80% on residual activity: below means Criterion met, at or above means Criterion not met.

Please review the entries below; each comes with its answer.
smiles_structure=NCCc1ccc(O)c(O)c1 subject_of_test="D(2) dopamine receptor (Rattus norvegicus)" assigned_category="Criterion not met"
smiles_structure=CCCN(CCc1ccccc1)CCc1cccc(O)c1 subject_of_test="D(2) dopamine receptor (Rattus norvegicus)" assigned_category="Criterion not met"
smiles_structure=Br.NCCc1ccc(Cl)c(O)c1 subject_of_test="D(2) dopamine receptor (Rattus norvegicus)" assigned_category="Criterion not met"
smiles_structure=Br.CCCN(CCC)CCc1ccc(Cl)c(O)c1 subject_of_test="D(2) dopamine receptor (Rattus norvegicus)" assigned_category="Criterion not met"
smiles_structure=CCCN(CCc1ccc(O)cc1)CCc1ccc(Cl)c(O)c1 subject_of_test="D(2) dopamine receptor (Rattus norvegicus)" assigned_category="Criterion met"

Turning now to a further compound:
Criterion: residual activity strictly below 80%. Is it met by CCCN(CCc1ccccc1)CCc1ccc(Cl)c(O)c1 ? Criterion met
